Listed here are sequences together with their documented apparent KD of MS2 coat protein.
# System: MS2 coat protein
# Experiment description: apparent KD of MS2 coat protein; higher = weaker reporter binding
# Experimental parameters: Eterna round: R101; input ligand: FMN 200 uM
Measurement label: apparent KD of MS2 coat protein (nM)

{"columns": ["Seq text", "Numeric result"],
 "data": [
  ["ACAGGUCGUGAGAAGGAGAGUGGCACCGUCGAAAGACGGUGCAACUAGAAACCUAGAGGAUCACCCUAGGAUAUCACGACCUGA [#SharedSequence - IExNG2: 11] (puzzle (switch architecture): Inverted Exclusion NG 2)", 6.46],
  ["CACCUAAAUCCUAGAGGAUCACCCUAGGAUAUCACCGUCGAGGUGCCAUAAUGGCACCUCGACGGUGAGAAGGAGGGUAAAUAA [#SharedSequence - SLExNG3: 9] (puzzle (switch architecture): Small Loop Exclusion NG 3)", 6.41],
  ["CUGAAGUCUGACCCUCGAAACAUGAGGAUCACCCAUGUAGUCAGAAGGCGAUUGUGAGCAGGAAUCGAGGAUAUGAACUAGUUU [EternaBot1300] (puzzle (switch architecture): Inverted Exclusion NG 3)", 9.99],
  ["AAUAAUUCUCAAGGAUAUCAGUGGCAAAGCCACUGAGAAGGUGAGGAUCACCCACCUACGUGACGCUGGAAACAGCGUCACGAA [#SharedSequence ExNG1 - 34] (puzzle (switch architecture): Exclusion NG 1)", 164],
  ["ACACGUCGUGAGAAGGAGGAUCACCCUUUCGAAAGAAAUAGCCACCGUGAAAACGGUGGCAAAUCCUAGGAUAUCACGACGUGA [#SharedSequence - IExNG2: 4] (puzzle (switch architecture): Inverted Exclusion NG 2)", 41.8],
  ["CUUACUUUGUAGAAGGGUGACAUGAGGAUCACCCAUGUGCGUGGCCUGAAAGACCAGGGUACGCCACAGGAUAUACAAAGUAAG [Esatatina] (puzzle (switch architecture): Inverted Same State NG 2)", 26.1],
  ["GUUAUCUCAUGUUCGACGGACAUGAGGAUCACCCAUGUACCUUAGGAUAUUGAUGAAAUAUGGCGCAAGAAGGAAGGUAACGCU [EternaBot964] (puzzle (switch architecture): Exclusion NG 3)", 7.51],
  ["GGCAGCCCUCAGAAGGGAGUGCGAUAAUCGCACUCAGGAUAUGAGGAUCACCCAUAUCAAGCUGCCACUGAGGCAAAGCCUCAG [#SharedSequence - IEx NG 1-1] (puzzle (switch architecture): Inverted Exclusion NG 1)", 57.4],
  ["AAGAAGCUCACAGGAUAUCAGUAUAUGCUAUCUAGCGUAUUAAUGAACUGCUGAGAAGGGUGAGACAUGAGGAUCACCCAUGUA [Angeon] (puzzle (switch architecture): Small Loop Same State NG 1)", 54]
]}
